assay: Acute oral toxicity against female adult Anagrus nilaparvatae in petridish under laboratory conditions assessed as mortality compound treated as emulsible concentrate with acetone and Triton X-100 measured after 2 hr; details: in vivo
experimental.readout: mortality at 2 h (%)
Lab book: enter the figure in %, no units written.

Incoming: # get_value(readout='mortality at 2 h', item= COP(=O)(OC)OC=C(Cl)Cl )
Outgoing: 100

###

experiment: Acute contact toxicity against adult Anagrus nilaparvatae assessed as dead parasitoid wasps compound treated for 1 hr measured after 8 hr wash-out period
experimental.readout: log10(LC50) (log10 of the value in mgAi/L)
A value of 2 here means LC50 of 100 in mgAi/L, since values are log10.

Incoming: // returns reported log10(LC50) for input CN1COCN(Cc2cnc(Cl)s2)/C1=N\[N+](=O)[O-] [THIAMETHOXAM]
Outgoing: -0.28

Incoming: Please answer likewise for CNC(=O)Oc1ccccc1C(C)C [ISOPROCARB]
Outgoing: 0.03

Incoming: Proceed to CCOP(=S)(OCC)Oc1ncn(-c2ccccc2)n1 [TRIAZOPHOS]
Outgoing: 0.10

Incoming: Now this one: CCOc1ccc([Si](C)(C)CCCc2ccc(F)c(Oc3ccccc3)c2)cc1 [SILAFLUOFEN]
Outgoing: 1.15

Incoming: CCOP(=S)(OCC)Oc1nc(Cl)c(Cl)cc1Cl [CHLORPYRIFOS] , same question.
Outgoing: -2.70

Incoming: Further, for O=[N+]([O-])NC1=NCCN1Cc1ccc(Cl)nc1 [IMIDACLOPRID] ?
Outgoing: -1.68

Incoming: Now consider COP(=O)(OC)OC=C(Cl)Cl [DICHLORVOS] .
Outgoing: 1.20

Incoming: Next: N#Cc1nn(-c2c(Cl)cc(C(F)(F)F)cc2Cl)c(N)c1[S+]([O-])C(F)(F)F (configuration not stated) [FIPRONIL]
Outgoing: -0.74
